Measured values drawn from patent US9822117B2 for this set.

readout.name: pKi
Scale for pKi: -log10 of concentration given in mol/L; no unit attached.

(Q) Field: pKi (Sigma σ2 receptor (Homo sapiens)). Entry: CN1CCc2c(c3cccc4c3n2CCc2ccccc2-4)C1
(A) 6.51
